assay text: Headspace above the soap bar: relative partition parameter (SPME-GC)
Assay type: physicochemical
recorded conditions: log of amount in headspace relative to amount in soap; 1.2% odorant mixture, grated soap, SPME 15 min
What Activity (logarithmic partition parameter above soap) was measured for each of the following?

Take a look at these entries with their results.
CC(=O)O[C@@H]1C[C@H]2CC[C@]1(C)C2(C)C (racemic) [Isobornyl acetate] :: 0.147
CC(=O)OCC=C(C)C [Prenyl acetate] :: 1.180
CC(C)=CCC/C(C)=C/CO :: −0.952

Each compound below has a recorded value; state its Activity (logarithmic partition parameter above soap).
1. OCc1ccccc1
2. CC(=O)OCc1ccccc1 [Benzyl acetate]
3. C=C1C2CCC(C2)C1(C)C (stereo not shown)
4. CC(C)CCOC(=O)c1ccccc1O [Isoamyl salicylate]
5. C=C(C)[C@H]1CC=C(C)CC1

1. −0.088
2. 0.538
3. 0.392
4. −1.190
5. 0.748

# return Activity (logarithmic partition parameter above soap) for each item in the list
1. C[C@@H]1CC[C@H]2C(C)(C)[C@H]3C[C@@]12CC[C@@]3(C)O
2. CCCCCC/C(C=O)=C\c1ccccc1
3. CC(=O)OC(C)c1ccccc1 (stereo not shown) [Styrolyl acetate]
4. OCCc1ccccc1
5. CC(=O)OC(C)(C)Cc1ccccc1 [DMBCA, dimethylbenzylcarbinyl acetate]
6. CC(=O)/C=C/C1C(C)=CCCC1(C)C (stereo not shown)

1. −2.090
2. −2.176
3. 0.486
4. 0.170
5. 0.059
6. −0.701

Hey, quick one: what's Activity (logarithmic partition parameter above soap) for each of these?
1. C=C1CCC2CC1C2(C)C (stereo not shown)
2. C=CC(C)CCCC(C)(C)O (stereo not shown) [Dihydromyrcenol]
3. CC(C=O)Cc1ccc(C(C)(C)C)cc1 (stereo not shown)

[0.469, 0.076, "−1.331"]

Look up Activity (logarithmic partition parameter above soap) for the entries below, preserving their order.
1. C=CC(C)(O)CCC=C(C)C (stereo not shown)
2. CC1=CCC2CC1C2(C)C (stereo not shown)
3. C=CCc1ccc(O)c(OC)c1

1. −0.028
2. 0.395
3. −1.435

# return Activity (logarithmic partition parameter above soap) for each item in the list
1. CC(=O)/C=C/C1=C(C)CCCC1(C)C
2. CCOC(=O)c1ccccc1C(=O)OCC [Diethyl phthalate]
3. CC(CC=O)CCCC(C)(C)O (stereo not shown) [Hydroxycitronellal]
4. CC(C)=CCCC(C)CCO (stereo not shown)
5. CC1=CCC(C(C)C)=CC1

1. −0.837
2. −1.742
3. −1.804
4. −0.787
5. 0.819

---

assay text: Headspace above the candle wax: relative partition parameter (SPME-GC)
Assay type: physicochemical
recorded conditions: log of amount in headspace relative to amount in candle wax; 5% odorant mixture, grated nonburning candle, SPME 15 min
I'd be grateful if you could share measured Activity (logarithmic partition parameter above candle wax) for these entries.
Answers are plain numbers.

Study these solved cases before continuing.
C=CC(C)(O)CCC=C(C)C (centres unmarked) :: −0.420
CC(=O)/C=C/C1C(C)=CCCC1(C)C (centres unmarked) :: −1.441
OCc1ccccc1 :: −0.364
CC(=O)OC(C)(C)C1CC=C(C)CC1 (centres unmarked) [Terpinyl acetate] :: −0.979

Kindly give each listed record's Activity (logarithmic partition parameter above candle wax).
1. CC(=O)OCc1ccccc1 [Benzyl acetate]
2. C=CCc1ccc(O)c(OC)c1
3. C=C1C2CCC(C2)C1(C)C (centres unmarked)
4. CC(=O)OC(C)(C)Cc1ccccc1 [DMBCA, dimethylbenzylcarbinyl acetate]
5. C=CC(C)CCCC(C)(C)O (centres unmarked) [Dihydromyrcenol]
6. C=C1CCC2CC1C2(C)C (centres unmarked)
7. OCCc1ccccc1

1: −0.244; 2: −0.822; 3: 0.783; 4: −0.856; 5: −0.324; 6: 0.701; 7: −0.632

---

Please provide measured Activity (logarithmic partition parameter above candle wax) for the entries that follow.
assay text: Headspace above the candle wax: relative partition parameter (SPME-GC)
Type: physicochemical
recorded conditions: log of amount in headspace relative to amount in candle wax; 5% odorant mixture, grated nonburning candle, SPME 15 min
One number for each entry.

Examples from the recorded data:
CC(CC=O)CCCC(C)(C)O (centres unmarked) [Hydroxycitronellal] :: −1.869
CC(C)=CCCC(C)CCO (centres unmarked) :: −1.159
CCOC(=O)c1ccccc1C(=O)OCC [Diethyl phthalate] :: −2.459
CC(C=O)Cc1ccc(C(C)(C)C)cc1 (centres unmarked) :: −2.105
CC1=CCC(C(C)C)=CC1 :: 0.342

For each listed entry, give its Activity (logarithmic partition parameter above candle wax).
1. CC(=O)OCC=C(C)C [Prenyl acetate]
2. CC(=O)/C=C/C1=C(C)CCCC1(C)C
3. CC(C)=CCC/C(C)=C/CO

1. 0.726
2. −1.606
3. −1.273

Kindly give each listed record's Activity (logarithmic partition parameter above candle wax).
1. CC(=O)OC(C)c1ccccc1 (centres unmarked) [Styrolyl acetate]
2. CC1=CCC2CC1C2(C)C (centres unmarked)
3. CC(=O)O[C@@H]1C[C@H]2CC[C@]1(C)C2(C)C (racemic) [Isobornyl acetate]

1: −0.341; 2: 0.819; 3: −0.588

---

assay text: Headspace above the shampoo: relative partition parameter (SPME-GC)
Format: physicochemical
recorded conditions: log of amount in headspace relative to amount in shampoo; 1% odorant mixture, SPME 15 min
Method: The procedure is analogous in all examples. The example reflects the scent impression, which is perceived from a freshly opened bottle of shampoo. The mixture of 39 odorants is incorporated into the above-mentioned shampoo (1) in an amount of 1%. 20 g of the shampoo are transferred to a 100 ml Erlenmeyer flask sealed with a septum. The headspace above the shampoo is extracted using a SPME over 15 min. […] The analytical results are then used mathematically as described above.
parameter: Activity (logarithmic partition parameter above shampoo)
One number for each entry.

CC(=O)OC(C)c1ccccc1 (stereo not drawn) [Styrolyl acetate] :: −0.232
CC(=O)O[C@@H]1C[C@H]2CC[C@]1(C)C2(C)C (racemic) [Isobornyl acetate] :: −0.026
CC(=O)OCc1ccccc1 [Benzyl acetate] :: −0.293
CC(C)CCOC(=O)c1ccccc1O [Isoamyl salicylate] :: −1.716
C=C1C2CCC(C2)C1(C)C (stereo not drawn) :: 0.777

Turning now to a further record.
Lab note: C=CC(C)CCCC(C)(C)O (stereo not drawn) [Dihydromyrcenol] gave Activity (logarithmic partition parameter above shampoo) of −0.287

---

assay text: Headspace above the solution of WC scented block cleaner: relative partition parameter (SPME-GC)
Assay type: physicochemical
recorded conditions: log of amount in headspace above 1% solution in water relative to amount in WC block; 1% odorant mixture, SPME 15 min
Assign Activity (logarithmic partition parameter above dissolved WC scented block cleaners) to each entry below.

CC(=O)O[C@@H]1C[C@H]2CC[C@]1(C)C2(C)C (racemic) [Isobornyl acetate] :: −0.434
CC(=O)OC(C)(C)Cc1ccccc1 [DMBCA, dimethylbenzylcarbinyl acetate] :: −0.992
CC(=O)OCc1ccccc1 [Benzyl acetate] :: −1.552
C[C@@H]1CC[C@H]2C(C)(C)[C@H]3C[C@@]12CC[C@@]3(C)O :: −1.348

GET /value?item= C=C1C2CCC(C2)C1(C)C (centres unmarked) &field=Activity (logarithmic partition parameter above dissolved WC scented block cleaners) returns −1.348

---

assay text: Headspace above the wet washed hair: relative partition parameter headspace/shampoo (SPME-GC)
Assay type: physicochemical
recorded conditions: log of amount in headspace above wet washed hair relative to amount in shampoo; 1% odorant mixture, 3 h standing, SPME 15 min
Hi! Could you tag entries with Activity (logarithmic partition parameter above wet hair) below -2 as Criterion met, and those at or above as Criterion not met? Much appreciated.

Known results for compounds:
CC(=O)O[C@@H]1C[C@H]2CC[C@]1(C)C2(C)C (racemic) [Isobornyl acetate] :: Criterion not met
CC(C=O)Cc1ccc(C(C)(C)C)cc1 (stereo not drawn) :: Criterion met
C=CC(C)CCCC(C)(C)O (stereo not drawn) [Dihydromyrcenol] :: Criterion not met
CC(=O)/C=C/C1=C(C)CCCC1(C)C :: Criterion not met
CC(=O)OCC=C(C)C [Prenyl acetate] :: Criterion not met
CC1=CCC(C(C)C)=CC1 :: Criterion not met
CC(=O)OC(C)(C)Cc1ccccc1 [DMBCA, dimethylbenzylcarbinyl acetate] :: Criterion not met
C=C1CCC2CC1C2(C)C (stereo not drawn) :: Criterion not met
CC(CC=O)CCCC(C)(C)O (stereo not drawn) [Hydroxycitronellal] :: Criterion met
C=C1C2CCC(C2)C1(C)C (stereo not drawn) :: Criterion not met

Decide: Activity (logarithmic partition parameter above wet hair) of `CCCCCC/C(C=O)=C\c1ccccc1` strictly below -2? Criterion met

Record CC(=O)/C=C/C1C(C)=CCCC1(C)C (stereo not drawn) : is its Activity (logarithmic partition parameter above wet hair) strictly below -2? Criterion not met
